Ref: ChEMBL document CHEMBL5303304

# System: HEK-293T
# Assay: Incucyte cell viability with HEK293T; further: unitless GR value; below 1 slowed growth and below 0 cell loss
# Type: toxicity, cell-based
# Condition Label: human, 6 h, 10 µM, compound concentration 10 uM, replicate number 1
Please enter T where Growth Rate is greater than or equal to 0.3, and F where it is lower.

{"Compound": "Cc1cc(-c2ccnc(Nc3cnn(C)c3)n2)ccc1CNC(=O)N1CC(OC(C)C)C1", "Category Label": "T"}
{"Compound": "CC(C)(O)[C@H](F)CN1Cc2cc(NC(=O)c3cnn4cccnc34)c(N3CCOCC3)cc2C1=O", "Category Label": "T"}
{"Compound": "COC(=O)c1ccc2c(c1)NC(=O)/C2=C(\\Nc1ccc(-c2nccn2C)cc1)c1ccccc1", "Category Label": "F"}
{"Compound": "NS(=O)(=O)c1cncc(-c2nc(NCc3ccccn3)c3c(-c4ccccc4)cccc3n2)c1 [BMS-919373]", "Category Label": "F"}
{"Compound": "O=C(NCc1cccnc1OCC(F)(F)F)c1cncc(-c2ccc(Cl)cc2)c1", "Category Label": "T"}
{"Compound": "Cc1ccc(-n2nc(C(C)(C)C)cc2NC(=O)Nc2ccc(OCCN3CCOCC3)c3ccccc23)cc1 [DORAMAPIMOD]", "Category Label": "T"}
{"Compound": "Oc1c(CN2CCCC2)cc(COCc2ccccc2)c2cccnc12", "Category Label": "T"}
{"Compound": "O=C(Nc1cccc(Nc2nccc(Nc3cccc(C(F)(F)F)c3)n2)c1)C1CC1 [ANILINOPYRIMIDINE1]", "Category Label": "F"}
